- Read-out: Macrophage colony-stimulating factor (MCSF), CSF1 (gene 1435)
- ASSAY EXPLANATION: BSK_CASM3C_MCSF: BioMAP Diversity Plus: CASM3C Assay for Macrophage colony-stimulating factor (MCSF) Biomarker Activity (AID 2283044);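 note: M-CSF protein amount quantified by ELISA after 24 h exposure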
- PARTICULARS: primary human coronary artery smooth muscle cells; actives raise or lower the signal
Activity calls are given as the source filed them. Rule for the calls: active = hit-call score of the fitted dose curve at least 0.9, where 1 is the maximum; inactive = score below 0.9.
API: response.call in T for active, F for inactive

Observe how each entry below is paired with its result.
- MOLECULE: "CCCCc1oc2ccccc2c1C(=O)c1cc(I)c(OCCN(CC)CC)c(I)c1"
  LABEL: "T"
- MOLECULE: "O=C(O)CCC(F)(F)C(F)(F)C(F)(F)C(F)(F)C(F)(F)F"
  LABEL: "F"
- MOLECULE: "O=C(NO)c1ccccc1"
  LABEL: "T"

**Q:** Hey, what did the test say about `Oc1ccc(Cc2ccccc2O)cc1` ?
**A:** F

**Q:** Hey, what did the test say about `O=C1OC2(c3ccccc31)c1cc(I)c(O)c(I)c1Oc1c2cc(I)c(O)c1I` ?
**A:** T

**Q:** Assay result, entry `N=C(N)c1ccc(OCCCCCOc2ccc(C(=N)N)cc2)cc1` — outcome?
**A:** T

**Q:** # outcome recorded in this test, key = `C=CC(=C)CC/C=C(\C)CCC=C(C)C`
**A:** F

**Q:** Would you mind telling me which call this test gave CCCCC(CC)C(=O)OCCOCCOCCOCCOC(=O)C(CC)CCCC (stereo unspecified) ?
**A:** F

**Q:** I'd appreciate the recorded outcome for `CC(=O)Nc1ccc(O)cc1` from this test.
**A:** F

**Q:** Recorded test call requested for `COc1cccc(O)c1`
**A:** F

**Q:** How was `OCC(F)(F)C(F)(F)C(F)(F)C(F)(F)C(F)(F)C(F)(F)C(F)(F)C(F)(F)C(F)(F)C(F)(F)C(F)(F)F` classified in this test?
**A:** F

**Q:** Identify the outcome logged in this assay for the molecule shown: `COc1cc(OC)nc(NC(=O)NS(=O)(=O)Nc2ccccc2C(=O)N(C)C)n1`
**A:** F

**Q:** Hi, sorry to bother you, what did the test record for `CC[N+](CC)(CC)Cc1ccccc1` ?
**A:** F
